These data points were gathered from ChEMBL document CHEMBL1201862.

Biological target: Short transient receptor potential channel 4 (Mus musculus)
Sequence (Q9QUQ5 whole entry): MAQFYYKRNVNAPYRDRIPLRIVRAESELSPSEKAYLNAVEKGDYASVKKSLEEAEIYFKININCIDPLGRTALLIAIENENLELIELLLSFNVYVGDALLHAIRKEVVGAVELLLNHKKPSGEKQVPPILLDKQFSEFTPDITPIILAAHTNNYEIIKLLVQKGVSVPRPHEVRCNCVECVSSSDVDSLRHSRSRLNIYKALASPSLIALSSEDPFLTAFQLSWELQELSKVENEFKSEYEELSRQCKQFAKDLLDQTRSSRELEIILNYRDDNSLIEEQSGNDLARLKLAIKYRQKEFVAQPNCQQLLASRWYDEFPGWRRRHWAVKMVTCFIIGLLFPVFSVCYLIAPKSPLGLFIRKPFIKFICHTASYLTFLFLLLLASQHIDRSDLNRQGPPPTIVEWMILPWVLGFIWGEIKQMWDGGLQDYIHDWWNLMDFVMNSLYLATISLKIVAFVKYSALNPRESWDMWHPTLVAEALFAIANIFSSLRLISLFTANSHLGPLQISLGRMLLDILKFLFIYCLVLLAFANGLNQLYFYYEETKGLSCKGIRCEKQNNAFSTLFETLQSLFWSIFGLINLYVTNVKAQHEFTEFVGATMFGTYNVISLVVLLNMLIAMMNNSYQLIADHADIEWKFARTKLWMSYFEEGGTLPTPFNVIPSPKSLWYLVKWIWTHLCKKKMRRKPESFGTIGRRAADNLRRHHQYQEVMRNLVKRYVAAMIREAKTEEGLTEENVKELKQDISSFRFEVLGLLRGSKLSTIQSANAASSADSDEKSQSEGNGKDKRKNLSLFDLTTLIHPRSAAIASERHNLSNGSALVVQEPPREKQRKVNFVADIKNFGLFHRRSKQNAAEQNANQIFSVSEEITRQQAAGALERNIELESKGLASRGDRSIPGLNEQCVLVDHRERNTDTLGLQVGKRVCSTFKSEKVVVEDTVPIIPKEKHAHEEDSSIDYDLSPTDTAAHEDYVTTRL
Experiment: mouse TRPC4 channel activators, dose response, cell-based, HEK293 TRPC4/mu-opioid, Fluo-4 calcium (AID 434937)
Format: functional
Activity calls are given as the source filed them. The rule behind the calls is not given here.
# maps each entry to its EC50
OBSERVED PROPERTY: EC50

INSERT INTO results (compound, measured) VALUES
  ('CC(C)(C)[C@H]1C=C(C(=O)NCc2ccccc2)O[C@@H](OCc2ccc(CO)cc2)C1', '9.44 µM (active)'),
  ('CCOc1ccc(CN2CCNC(=O)C2CC(=O)NCCc2ccccn2)cc1 (centres undefined)', '6.68 µM (active)'),
  ('CC1CC(C)(C)N(C(=O)CN2C(=O)c3ccccc3C2=O)c2ccccc21 (centres undefined)', '5.96 µM (active)'),
  ('Cc1ccc(S(=O)(=O)Nc2cccc(C(=O)NCC(c3ccccc3)N(C)C)c2)cc1F (centres undefined)', '5.31 µM (active)'),
  ('c1ccc(Cn2nnnc2C(c2cccnc2)N2CCN(C3CCCCC3)CC2)cc1 (centres undefined)', '1.68 µM (active)'),
  ('Cc1cc(OCCn2ccnc2)cc(C)c1Cl', '3.76 µM (active)'),
  ('Cc1cc(C)c(C)c(OCCCN(C)C)c1', '0.168 µM (active)'),
  ('O=C1NCN(c2ccccc2)C12CCN(CCCC(c1ccc(F)cc1)c1ccc(F)cc1)CC2', '6.68 µM (active)'),
  ('CC1(C)CC(=O)c2cc(C(=O)NCc3ccco3)c(=O)n(-c3ccc(Cl)cc3)c2C1', '6.68 µM (active)');
